- TARGET: human Edg-1(S1P1) (Homo sapiens)
- Sequence (P21453 whole entry): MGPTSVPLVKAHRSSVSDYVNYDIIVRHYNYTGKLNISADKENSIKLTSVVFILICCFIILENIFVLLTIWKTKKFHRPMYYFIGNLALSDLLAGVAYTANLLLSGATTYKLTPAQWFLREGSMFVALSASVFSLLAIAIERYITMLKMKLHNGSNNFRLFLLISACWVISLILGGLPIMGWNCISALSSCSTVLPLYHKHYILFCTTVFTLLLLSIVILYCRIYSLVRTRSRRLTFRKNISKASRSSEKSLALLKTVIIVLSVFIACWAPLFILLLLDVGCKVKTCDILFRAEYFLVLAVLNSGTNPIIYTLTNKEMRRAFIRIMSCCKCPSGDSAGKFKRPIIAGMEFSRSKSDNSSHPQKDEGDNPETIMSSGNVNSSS
QUANTITY_MEASURED: IC50 (nM)

MOLECULE | CENSOR_SYMBOL | VALUE_OBSERVED
CCc1c(C(C)NS(=O)(=O)c2ccc3c(Cl)cccc3c2)ccnc1Oc1cccc(N2CCN(C)CC2)c1 (stereo not drawn) | = | 35
CCc1c(C(C)NS(=O)(=O)c2ccc(Cl)c(Cl)c2)ccnc1Oc1cccc(N2CCN(C)CC2)c1 (stereo not drawn) | = | 107
CCc1c(C(C)NS(=O)(=O)c2ccc3c(Cl)ccc(Cl)c3c2)ccnc1Oc1cccc(N2CCOCC2)c1 (stereo not drawn) | ≤ | 200
Cc1c(C(C)NS(=O)(=O)c2ccc3c(Cl)cccc3c2)ccnc1Oc1cccc(N2CCN(C)CC2)c1 (stereo not drawn) | ≤ | 200
CCCc1c(C(C)NS(=O)(=O)c2ccc3c(Cl)cccc3c2)ccnc1Oc1cccc(N2CCN(C)CC2)c1 (stereo not drawn) | ≤ | 200
CCc1c(C(C)NS(=O)(=O)c2ccc(Cl)c(Cl)c2Cl)ccnc1Oc1cccc(N2CCOCC2)c1 (stereo not drawn) | = | 63
CCc1c(C(C)NS(=O)(=O)c2ccc3c(Cl)cccc3c2)ccnc1Sc1cccc(N2CCN(C)CC2)c1 (single isomer, unassigned) | = | 33
CCc1c(C(CC)NS(=O)(=O)c2ccc3c(Cl)cccc3c2)ccnc1Oc1cccc(N2CCN(C)CC2)c1 (stereo not drawn) | = | 47
CCc1c(C(C)NS(=O)(=O)c2ccc(Cl)c(Cl)c2)ccnc1Oc1cccc(N2CCOCC2)c1 (stereo not drawn) | = | 66
